measuredAttribute: melting point (°C)

CC(C)CCCC(C)(C)C | -105
O=C1c2ccccc2C(=O)C1(O)O | 250
CN(C(=S)C(=O)c1ccccc1)c1ccccc1 | 109

I. Sc1nc(-c2ccccc2)cs1
II. COc1ccc(C#N)c(Cl)c1OC
### Prompt Between I and II , whose recorded melting point is greater? State the label of the item chosen.
### Response I

---

measuredAttribute: melting point (°C)

As a guide, the following entries are already answered.
Cc1c(C)c(O)c(C)c(C)c1O | 233
CCC1(CC)C(=O)NC(=O)N(C)C1=O | 155
N#Cc1cc(I)c(O)c([N+](=O)[O-])c1 | 138

A. Clc1ccc(-c2csc(N3N=C(c4cnccn4)CC3c3ccc4c(c3)OCO4)n2)cc1 (stereo not given)
B. CCOC(=O)CC(/C=C1\C(=O)C2(C)CCC1C2(C)C)(/C=C1\C(=O)C2(C)CCC1C2(C)C)C(=O)OCC (stereo not given)
C. CCOC(=O)c1ccc(OC(C)=O)cc1
D. CC1CCc2ccccc2C1 (stereo not given)
### Prompt Sequence the entries by melting point, beginning with the highest number. Provide the ranking by listing each label in its place in the requested order.
### Response A, B, C, D

a. O=C(N[C@H](Cc1ccc(Cl)cc1)C(=O)O)OCC1c2ccccc2-c2ccccc21
b. S=C1NCCCN1
### Prompt So which one has the bigger melting point here, a or b ? Refer to your chosen item by its label in the answer.
### Response b

1. CC(CC(N)=O)n1nc2ccccc2n1 (stereo not given)
2. FC(F)(F)c1cc(CCl)cc(C(F)(F)F)c1
### Prompt Param pair: 1 , 2 . Output: the one whose melting point is numerically greater. Give the chosen item's label as your response.
### Response 1

1. CC(=O)C=CC(=O)O
2. CC(Cc1ccc(O)c(O)c1)C(C)Cc1ccc(O)c(O)c1 (stereo not given)
### Prompt Identify the entry with the smaller melting point: 1 or 2 . Output the label that corresponds to your choice.
### Response 1

---

measuredAttribute: melting point (°C)

O[C@@H](c1ccccc1)[C@@H](O)c1ccccc1 | 149

1. CC(C)(C)OC(=O)N[C@@H]1CC[C@H](C(=O)O)C1
2. C1SCSCS1
### Prompt Given the two records 1 and 2 , choose the one whose melting point value is lower. Refer to your chosen item by its label in the answer.
### Response 1
(1: 112 °C, 2: 220 °C)

A. CCCCCCCCCCCCCCCCCCCO
B. Cc1nn(C)c(C)c1N
C. Cc1noc(NS(=O)(=O)c2ccc(N)cc2)c1C
### Prompt Sort the compounds on melting point; start with the lowest figure. Your answer should be the labels, listed in the requested order.
### Response A, B, C
(A: 63.3 °C, B: 102 °C, C: 193 °C)

---

measuredAttribute: melting point (°C)

COc1ccc(-c2ccccc2)cc1NC(=O)C(F)(F)C(F)(F)C(F)(F)C(F)(F)C(F)(F)C(F)(F)C(F)(F)C(F)(F)F | 118
CC(=O)O[C@H]1C[C@H]2[C@@H]3CCC4CCCC[C@]4(C)[C@H]3CC[C@]2(C)C1 (stereo not given in full) | 108

---

measuredAttribute: melting point (°C)

CN(C)c1ccc(C=CC=O)cc1 | 140

I. CCC(Br)(CC)C(=O)NC(=O)NC(C)=O
II. c1ccc(OCCOCCOc2ccccc2)cc1
### Prompt Endpoint returns whichever of I and II has the numerically higher melting point. Return value: the label identifying the chosen record.
### Response I
(I: 109 °C, II: 66 °C)

a. NS(=O)(=O)c1ccc(Cl)s1
b. Cc1cccc(C(O)c2ccccc2)c1 (stereo not given)
c. CCCCCCCC(=O)OCCCC
d. O=C1NCCN1c1ncc([N+](=O)[O-])s1
### Prompt Order the records by melting point, with each subsequent value no larger than the one before. Give the labels in the order requested.
### Response d, a, b, c
(d: 261 °C, a: 117 °C, b: 53 °C, c: -42.9 °C)
